Tested on: Calu-3
Assay comment: cell viability relative to DMSO; higher = less toxic
Conditions: 72 h; 10 nM
Measured quantity: cell viability

[[record]]
compound = "c1ccc2c(c1)OC[C@H](CNCCCOc1ccc3c(c1)OCO3)O2"
assay_target = "Calu-3"
result = "103%"

[[record]]
compound = "CCCCCCCC(=O)N[C@H](CN1CCCC1)[C@H](O)c1ccc2c(c1)OCCO2"
assay_target = "Calu-3"
result = "98.3%"

[[record]]
compound = "CCOC(=O)C1=C(C)NC(C)=C(C(=O)OC)C1c1cccc(Cl)c1Cl (configuration not stated)"
assay_target = "Calu-3"
result = "101%"

[[record]]
compound = "CC(=O)/N=c1/[nH]c(C)c(-c2ccc(Cl)c(S(=O)(=O)NCCO)c2)s1"
assay_target = "Calu-3"
result = "102%"

[[record]]
compound = "O=C1NC(c2ccccc2)(c2ccccc2)C(=O)N1COP(=O)(O)O"
assay_target = "Calu-3"
result = "97.3%"

[[record]]
compound = "CSc1nc(NC2CCCC2)c([N+](=O)[O-])c(NC2CCCC2)n1"
assay_target = "Calu-3"
result = "94.2%"

[[record]]
compound = "NCCOB(c1ccccc1)c1ccccc1"
assay_target = "Calu-3"
result = "96.3%"


Value source: the supplement of paper PMC13380429
